ASSAY SUMMARY: Pharmacokinetics in ICR mice after intravenous and intragastric administration
Type: in vivo
MEASUREMENT CONTEXT: male, ICR, mouse, plasma, iv, 2 mg/kg, ICR mice, IV 2 mg/kg, individual animals 301-303; read-out: Cmax
Could you please report measured Cmax for the items listed next?
Write the answer as a number in ng/mL, unit excluded.

Given COc1nc(OCCF)ncc1-c1nc2c(n1C(C)C)[C@@]1(C(=O)Nc3cc(Cl)ccc31)N(c1cc(Cl)ccc1C)C2=O , state its recorded Cmax.
4540

Check COc1cc(C(F)(F)F)ncc1-c1nc2c(n1C(C)C)[C@@]1(C(=O)Nc3cc(Cl)ccc31)N(c1cc(Cl)ccc1C)C2=O too.
2170

Check COc1nc(C2CC2)ncc1-c1nc2c(n1C(C)C)[C@@]1(C(=O)Nc3cc(Cl)ccc31)N(c1cc(Cl)cnc1C)C2=O too.
2540

---

ASSAY SUMMARY: Pharmacokinetics in ICR mice after intravenous and intragastric administration
Format: in vivo
MEASUREMENT CONTEXT: male, ICR, mouse, plasma, iv, 2 mg/kg, ICR mice, IV 2 mg/kg, mean of 3 animals; read-out: Cmax
Could you please report measured Cmax for the items listed next?
Write the answer as a number in ng/mL, unit excluded.

Given COc1ccc(-c2nc3c(n2C(C)C)[C@@]2(C(=O)Nc4cc(Cl)ccc42)N(c2cc(Cl)cnc2C)C3=O)c(OC)c1 [Example S-61] , state its recorded Cmax.
3160

Check COc1ncc(-c2nc3c(n2C(C)C)[C@@]2(C(=O)Nc4cc(Cl)ccc42)N(c2cc(Cl)ccc2F)C3=O)c(OC)n1 [Example S-44] too.
883

Check CCOc1cc(OC)c(-c2nc3c(n2C(C)C)[C@@]2(C(=O)Nc4cc(Cl)ccc42)N(c2cc(Cl)ccc2C)C3=O)cn1 [Example S-72] too.
4390

Check CCOc1ncc(-c2nc3c(n2C(C)C)[C@@]2(C(=O)Nc4cc(Cl)ccc42)N(c2cc(Cl)cnc2C)C3=O)c(OC)n1 [Example S-134] too.
3720

Check COc1cc(OC(C)C)ncc1-c1nc2c(n1C(C)C)[C@@]1(C(=O)Nc3cc(Cl)ccc31)N(c1cc(Cl)cnc1C)C2=O [Example S-137] too.
5620

Check COc1nc(OCCF)ncc1-c1nc2c(n1C(C)C)[C@@]1(C(=O)Nc3cc(Cl)ccc31)N(c1cc(Cl)ccc1C)C2=O [Example S-140] too.
5460

---

TEST SYSTEM: MDM2 (Homo sapiens, UniProt Q00987)
Construct: made in house
Sequence (Q00987 whole entry): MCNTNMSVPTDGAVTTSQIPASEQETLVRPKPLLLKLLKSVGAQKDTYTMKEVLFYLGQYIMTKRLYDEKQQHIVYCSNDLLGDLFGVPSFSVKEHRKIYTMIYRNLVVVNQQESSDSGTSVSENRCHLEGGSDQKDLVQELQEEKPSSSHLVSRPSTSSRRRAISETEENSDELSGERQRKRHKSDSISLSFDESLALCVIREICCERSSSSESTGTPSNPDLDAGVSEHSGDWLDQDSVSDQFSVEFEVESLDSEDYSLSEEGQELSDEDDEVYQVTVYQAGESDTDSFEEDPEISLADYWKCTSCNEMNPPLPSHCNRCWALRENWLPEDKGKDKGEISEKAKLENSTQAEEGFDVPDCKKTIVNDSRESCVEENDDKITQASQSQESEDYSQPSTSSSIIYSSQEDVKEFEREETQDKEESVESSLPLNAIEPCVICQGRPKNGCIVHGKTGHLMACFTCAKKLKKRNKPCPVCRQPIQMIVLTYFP
ASSAY SUMMARY: Inhibition test of MDM2-P53 (GST-MDM2, Biotin-P53, Anti-GST-Tb, SA-XL665)
Assay type: binding
MEASUREMENT CONTEXT: labels are Example numbers; the compounds with S-configuration are meant
EXPERIMENTAL READOUT: inhibitory effect on MDM2 compared with positive control compound HDM201

COMPOUND: COc1cc(C(N)=O)ccc1-c1nc2c(n1C(C)C)C1(C(=O)Nc3cc(Cl)ccc31)N(c1cc(Cl)ccc1C)C2=O (centres unmarked)
RECORDED RESULT: better

COMPOUND: COc1cc(N)c(C)cc1-c1nc2c(n1C(C)C)C1(C(=O)Nc3cc(Cl)ccc31)N(c1cc(Cl)ccc1C)C2=O (centres unmarked)
RECORDED RESULT: better

COMPOUND: COc1cc(OC)c(-c2nc3c(n2C(C)C)C2(C(=O)Nc4cc(Cl)ccc42)N(c2cc(Cl)ccc2C)C3=O)cc1F (centres unmarked)
RECORDED RESULT: better

COMPOUND: COc1cc(N(C)C)ncc1-c1nc2c(n1C(C)C)C1(C(=O)Nc3cc(Cl)ccc31)N(c1cc(Cl)cnc1C)C2=O (centres unmarked)
RECORDED RESULT: better

COMPOUND: COc1ccncc1-c1nc2c(n1C(C)C)C1(C(=O)Nc3cc(Cl)ccc31)N(c1cc(Cl)ccc1C)C2=O (centres unmarked)
RECORDED RESULT: better

COMPOUND: CCOc1cc(OC)c(-c2nc3c(n2C(C)C)C2(C(=O)Nc4cc(Cl)ccc42)N(c2cc(F)cc(Cl)c2)C3=O)cn1 (centres unmarked)
RECORDED RESULT: better

COMPOUND: COc1nc(N(C)C)ncc1-c1nc2c(n1C(C)C)C1(C(=O)Nc3cc(Cl)ccc31)N(c1cccc(Cl)c1)C2=O (centres unmarked)
RECORDED RESULT: better

COMPOUND: COc1cc(N)ccc1-c1nc2c(n1C(C)C)C1(C(=O)Nc3cc(Cl)ccc31)N(c1cc(Cl)ccc1C)C2=O (centres unmarked)
RECORDED RESULT: better

COMPOUND: COc1cc(OC2CC2)ncc1-c1nc2c(n1C(C)C)C1(C(=O)Nc3cc(Cl)ccc31)N(c1cc(Cl)ccc1C)C2=O (centres unmarked)
RECORDED RESULT: better

COMPOUND: COc1cccc(OC)c1-c1nc2c(n1C(C)C)C1(C(=O)Nc3cc(Cl)ccc31)N(c1cc(Cl)ccc1C)C2=O (centres unmarked)
RECORDED RESULT: better

Given COc1ncc(-c2nc3c(n2C(C)C)C2(C(=O)Nc4cc(Cl)ccc42)N(c2cc(F)cc(Cl)c2)C3=O)c(OC)n1 (centres unmarked) , state its recorded inhibitory effect on MDM2 compared with positive control compound HDM201.
better

Check COc1nc(OC(C)C)ncc1-c1nc2c(n1C(C)C)C1(C(=O)Nc3cc(Cl)ccc31)N(c1cc(Cl)ccc1C)C2=O (centres unmarked) too.
better

Check COc1cc(OC)c(-c2nc3c(n2C(C)C)C2(C(=O)Nc4cc(Cl)ccc42)N(c2cc(Cl)ccc2F)C3=O)cn1 (centres unmarked) too.
better

Check COc1ncc(-c2nc3c(n2C(C)C)C2(C(=O)Nc4cc(Cl)ccc42)N(c2cc(Cl)ccc2F)C3=O)c(OC)n1 (centres unmarked) too.
better

---

ASSAY SUMMARY: Pharmacokinetics in ICR mice after intravenous and intragastric administration
Format: in vivo
MEASUREMENT CONTEXT: male, ICR, mouse, plasma, iv, 2 mg/kg, IV 2 mg/kg, ICR mice, Mean; read-out: AUC(0-t)
Could you please report measured AUC(0-t) for the items listed next?
Write the answer as a number in ng·h/mL, unit excluded.

Given COc1cc(OC)c(-c2nc3c(n2C(C)C)[C@@]2(C(=O)Nc4cc(Cl)ccc42)N(c2cc(Cl)ccc2C)C3=O)cn1 [Example S-11] , state its recorded AUC(0-t).
3660

Check COc1ccc(-c2nc3c(n2C(C)C)[C@@]2(C(=O)Nc4cc(Cl)ccc42)N(c2cc(Cl)ccc2C)C3=O)c(OC)c1 [Example S-9] too.
3700

Check COc1ncc(-c2nc3c(n2C(C)C)[C@H](c2ccc(Cl)cc2)N(c2cc(Cl)cn(C)c2=O)C3=O)c(OC)n1 [HDM201, reference compound] too.
572

Check COc1ncc(-c2nc3c(n2C(C)C)[C@@]2(C(=O)Nc4cc(Cl)ccc42)N(c2cccc(Cl)c2)C3=O)c(OC)n1 [Example S-1] too.
700

Check COc1cc(N(C)C)ccc1-c1nc2c(n1C(C)C)[C@@]1(C(=O)Nc3cc(Cl)ccc31)N(c1cc(Cl)ccc1C)C2=O [Example S-23] too.
7420

Check COc1ncc(-c2nc3c(n2C(C)C)[C@@]2(C(=O)Nc4cc(Cl)ccc42)N(c2cc(Cl)ccc2C)C3=O)c(OC)n1 [Example S-2] too.
1460

---

ASSAY SUMMARY: Pharmacokinetics in ICR mice after intravenous and intragastric administration
Format: in vivo
MEASUREMENT CONTEXT: male, ICR, mouse, plasma, iv, 2 mg/kg, ICR mice, IV 2 mg/kg, individual animal; read-out: Vz
EXPERIMENTAL READOUT: Vd (L/kg)
Write the answer as a number in L/kg, unit excluded.

Given COc1cc(OC(C)C)ncc1-c1nc2c(n1C(C)C)[C@@]1(C(=O)Nc3cc(Cl)ccc31)N(c1cc(Cl)ccc1C)C2=O , state its recorded Vd.
0.16

Check COc1cc(OC)c(-c2nc3c(n2C(C)C)[C@@]2(C(=O)Nc4cc(Cl)ccc42)N(c2cccc(Cl)c2)C3=O)cn1 too.
1

Check CCOc1cc(OC)c(-c2nc3c(n2C(C)C)[C@@]2(C(=O)Nc4cc(Cl)ccc42)N(c2cc(Cl)cnc2C)C3=O)cn1 too.
0.85

Check COc1ncc(-c2nc3c(n2C(C)C)[C@@]2(C(=O)Nc4cc(Cl)ccc42)N(c2cc(F)cc(Cl)c2)C3=O)c(OC)n1 too.
1.65

Check COc1cc(OC)c(-c2nc3c(n2C(C)C)[C@@]2(C(=O)Nc4cc(Cl)ccc42)N(c2cc(Cl)ccc2F)C3=O)cn1 too.
0.66

Check CCOc1cc(OC)c(-c2nc3c(n2C(C)C)[C@@]2(C(=O)Nc4cc(Cl)ccc42)N(c2cc(Cl)ccc2F)C3=O)cn1 too.
0.39

// data source = patent US11339171B2
